Experiment: acute toxicity tests, intravenous or oral administration to mice
Conditions: mouse, in vivo, oral administration
READOUT_TYPE: LD50

[
  {
    "GIVEN_SMILES": "CCCC[C@H](C)C[C@H](O)/C=C/[C@H]1[C@H](O)CC(=O)[C@@H]1CCCC/C=C/C(=O)O",
    "READOUT_TYPE": "LD50",
    "OBSERVED_RESULT": "~50 mg/kg"
  }
]

* * *

Test system: spontaneously hypertensive rats
Assay: hypotensive activity, oral administration to conscious spontaneously hypertensive rats
Format: in vivo, rat
Settings: Rat, p.o.; relative to PGE1 = 1
Reported Hypotensive Activity Rat (p.o.), relative to PGE1 taken as 1 values for a set of compounds
READOUT_TYPE: Hypotensive Activity Rat (p.o.), relative to PGE1 taken as 1

[
  {
    "COMPOUND": "CCCCCC(CC)C[C@H](O)/C=C/[C@H]1[C@H](O)CC(=O)[C@@H]1CCCC/C=C/C(=O)OC (some centres unmarked) [E, reference compound]",
    "TESTED_SYSTEM": "spontaneously hypertensive rats",
    "OBSERVED_RESULT": 10
  },
  {
    "COMPOUND": "CCCC[C@H](C)C[C@H](O)/C=C/[C@H]1[C@H](O)CC(=O)[C@@H]1CCCC/C=C/C(=O)OC",
    "TESTED_SYSTEM": "spontaneously hypertensive rats",
    "OBSERVED_RESULT": 100
  },
  {
    "COMPOUND": "CCCC(CC)C[C@H](O)/C=C/[C@H]1[C@H](O)CC(=O)[C@@H]1CCCC/C=C/C(=O)O (some centres unmarked) [B, reference compound]",
    "TESTED_SYSTEM": "spontaneously hypertensive rats",
    "OBSERVED_RESULT": 10
  },
  {
    "COMPOUND": "CCCC[C@H](C)C[C@H](O)/C=C/[C@H]1[C@H](O)CC(=O)[C@@H]1CCCC/C=C/C(=O)O",
    "TESTED_SYSTEM": "spontaneously hypertensive rats",
    "OBSERVED_RESULT": 100
  }
]

* * *

Experiment: acute toxicity tests, intravenous or oral administration to mice
Settings: mouse, in vivo, intravenous administration

[
  {
    "GIVEN_SMILES": "CCCC[C@H](C)C[C@H](O)/C=C/[C@H]1[C@H](O)CC(=O)[C@@H]1CCCC/C=C/C(=O)O",
    "LD50": "~12 mg/kg"
  }
]

* * *

Test system: blood platelet aggregation
Assay: inhibitory activity on adenosine diphosphate-induced blood platelet aggregation in platelet-rich plasma of rats
Assay type: cell-based, rat
Conditions: Rat; relative to PGE1 = 1
READOUT_TYPE: Inhibitory Activity on Blood Platelet Aggregation Rat, relative to PGE1 taken as 1

[
  {
    "COMPOUND": "CCCC(CC)C[C@H](O)/C=C/[C@H]1[C@H](O)CC(=O)[C@@H]1CCCC/C=C/C(=O)O (stereo partly drawn) [B, reference compound]",
    "OBSERVED_RESULT": 14.5
  },
  {
    "COMPOUND": "CCCCCC(CC)C[C@H](O)/C=C/[C@H]1[C@H](O)CC(=O)[C@@H]1CCCC/C=C/C(=O)OC (stereo partly drawn) [E, reference compound]",
    "OBSERVED_RESULT": 2.2
  },
  {
    "COMPOUND": "CCCC[C@@H](C)C[C@H](O)/C=C/[C@H]1[C@H](O)CC(=O)[C@@H]1CCCC/C=C/C(=O)O",
    "OBSERVED_RESULT": 70.5
  },
  {
    "COMPOUND": "CCCC[C@H](C)C[C@H](O)/C=C/[C@H]1[C@H](O)CC(=O)[C@@H]1CCCC/C=C/C(=O)O",
    "OBSERVED_RESULT": 81.6
  },
  {
    "COMPOUND": "CCCCCC(CC)C[C@H](O)/C=C/[C@H]1[C@H](O)CC(=O)[C@@H]1CCCC/C=C/C(=O)O (stereo partly drawn) [D, reference compound]",
    "OBSERVED_RESULT": 1.4
  },
  {
    "COMPOUND": "CCCC[C@@H](C)[C@H](O)/C=C/[C@H]1[C@H](O)CC(=O)[C@@H]1CCCC/C=C/C(=O)O [A, reference compound]",
    "OBSERVED_RESULT": 2.84
  }
]
